// data source = PubChem BioAssay AID2314

Test Description: Cycloheximide Counterscreen for Small Molecule Inhibitors of Shiga Toxin; further: read at 38.3 µM for the half of the compounds with a filed dose; 0% is about no effect
Applied Conditions: cell reporter, cycloheximide protein synthesis inhibition counterscreen; stronger effect = higher value
Out of some 300,000 compounds screened, about 37,000 (12%) were called active. Many of the other results were omitted from the sample, so actives are more common in it than they were.
Observation Type: max response (%)

[[record]]
compound = "Cc1noc(C)c1CSc1nc2cc(S(=O)(=O)N3CCOCC3)ccc2o1"
reported_value = -1.38

[[record]]
compound = "CCc1ccc(N(CC(=O)NCc2cccnc2)S(=O)(=O)c2ccccc2)cc1"
reported_value = 9.39

[[record]]
compound = "NS(=O)(=O)c1ccc(CCNC(=O)Nc2ccc(Cl)cc2)cc1"
reported_value = 11

[[record]]
compound = "O=S(=O)(Cc1nnnn1-c1ccccc1)c1ccccc1"
reported_value = -0.262

[[record]]
compound = "O=C(c1cn2ccccc2n1)N1CCc2c([nH]c3ccccc23)C1c1ccccn1 (stereo unspecified)"
reported_value = 3.01

[[record]]
compound = "COc1ccc(CCn2c(=N)c(C(=O)NCC3CCCO3)cc3c(=O)n4cccc(C)c4nc32)cc1OC (stereo unspecified)"
reported_value = -4.64

[[record]]
compound = "O=C(C1CC(=O)N(c2ccc(F)cc2)C1)N1CCN(c2ccccc2)CC1 (stereo unspecified)"
reported_value = -1.52

[[record]]
compound = "CC(C)S(=O)(=O)c1csc(NC(=O)Nc2ccc(Cl)cc2)c1Cl"
reported_value = 17.4

[[record]]
compound = "COC(=O)c1cccc(N2C(=O)C3C4C=CC(CC4)C3C2=O)c1 (stereo unspecified)"
reported_value = -3.45

[[record]]
compound = "Cc1cc(C)n(CC(O)COc2ccc(C(C)(C)C)cc2)n1 (stereo unspecified)"
reported_value = 10.5

[[record]]
compound = "COc1ccc(-c2nnc(SCc3cccnc3)o2)cc1"
reported_value = 30.9


====

Test Description: Cycloheximide Counterscreen for Small Molecule Inhibitors of Shiga Toxin; further: read at 38.3 µM for the half of the compounds with a filed dose; 0% is about no effect
Applied Conditions: cell reporter, cycloheximide protein synthesis inhibition counterscreen
The campaign covered roughly 300,000 compounds. About 37,000 (12%) were called active. Cut-off read from the data, not from the text of the source: active = max response mostly above about 13% (no sharp cut-off); inactive = mostly below about 14%. This is one part of a sample in which actives are shown more often than they occur.
Labels: active, inactive

[[record]]
compound = "CSc1ccccc1NC(=O)Cc1ccc(Br)cc1"
group_label = "inactive"

[[record]]
compound = "O=C(C1=C[C@H](c2coc3ccccc3c2=O)C[C@H](OCc2ccc(CO)cc2)O1)N1CCN(Cc2ccccc2)CC1"
group_label = "inactive"

[[record]]
compound = "COc1cccc(CNS(=O)(=O)c2csc(C(N)=O)c2)c1"
group_label = "inactive"

[[record]]
compound = "COc1ccccc1Oc1ccc(N2CC(C(=O)OCC(=O)c3ccc(F)cc3)CC2=O)cc1 (stereo not drawn)"
group_label = "inactive"

[[record]]
compound = "CC1C(=O)N(Cc2ccccc2)c2ccccc2N1C(=O)c1ccccc1 (stereo not drawn)"
group_label = "inactive"

[[record]]
compound = "O=C(Nc1ccc(F)cc1)c1ccc(S(=O)(=O)NCc2cccnc2)cc1"
group_label = "inactive"

[[record]]
compound = "O=C(Nc1nonc1-c1ccc(Cl)cc1)c1ccco1"
group_label = "inactive"

[[record]]
compound = "COCCNc1ccc(-c2n[nH]c(=O)c3ccccc23)cc1[N+](=O)[O-]"
group_label = "inactive"

[[record]]
compound = "COc1cc(/C=N/NC(=O)CCc2n[nH]c(=O)[nH]c2=O)ccc1O"
group_label = "inactive"

[[record]]
compound = "Cc1ccccc1OCC(=O)Nc1nc(C)c(C(=O)N(C)C)s1"
group_label = "inactive"

[[record]]
compound = "COc1ccccc1C1=Nc2cccc3cccc(c23)N1"
group_label = "inactive"

[[record]]
compound = "COc1ccccc1-c1nc(SC)n[nH]1"
group_label = "active"

[[record]]
compound = "Cc1cc(=O)oc2c3c(cc(OCC(=O)N[C@H](C(=O)O)c4ccccc4)c12)OC(C)(C)CC3"
group_label = "inactive"

[[record]]
compound = "COc1cc(/C=N\\Nc2nc(-c3cccs3)c(NC(C)=O)s2)ccc1O"
group_label = "active"

[[record]]
compound = "Cc1[nH]c2ccccc2c1C(=O)CN1CC(C)CC(C)C1 (stereo not drawn)"
group_label = "inactive"

[[record]]
compound = "CCOC(=O)CSc1nnc(-c2ccc([N+](=O)[O-])cc2)o1"
group_label = "inactive"

[[record]]
compound = "CCCOc1ccccc1-c1nc(SCCC(=O)O)n[nH]1"
group_label = "inactive"

[[record]]
compound = "CCCCSc1nnc(-c2ccc(C)cc2)o1"
group_label = "active"

[[record]]
compound = "COc1ccc(S(=O)(=O)n2nc(C)c(S(=O)(=O)N3CCOCC3)c2C)cc1"
group_label = "inactive"

[[record]]
compound = "CCOC(=O)CSc1nnc(-c2ccncc2)o1"
group_label = "inactive"

[[record]]
compound = "CCN(CC)S(=O)(=O)c1ccc(C)c(NC(=O)COc2ccc(Br)cc2Cl)c1"
group_label = "inactive"

[[record]]
compound = "COCCNC(=O)COc1ccccc1C"
group_label = "inactive"

[[record]]
compound = "COc1ccc(CCNS(=O)(=O)c2cc3c(cc2C)NC(=O)CO3)cc1OC"
group_label = "inactive"


====

Test Description: Cycloheximide Counterscreen for Small Molecule Inhibitors of Shiga Toxin; further: read at 38.3 µM for the half of the compounds with a filed dose; 0% is about no effect
Applied Conditions: cell reporter, cycloheximide protein synthesis inhibition counterscreen; stronger effect = higher value
Out of some 300,000 compounds screened, about 37,000 (12%) were called active. This is one part of a sample in which actives are shown more often than they occur.
// values below are reported max response
Observation Type: max response (%)

[[record]]
compound = "O=C(COC(=O)Cc1ccccc1)Nc1ccc(F)cc1"
observation_type = "max response"
readout_unit = "%"
reported_value = -1.31

[[record]]
compound = "O=C(COC(=O)Cn1cnc2ccccc21)Nc1cccc2c1C(=O)c1ccccc1C2=O"
observation_type = "max response"
readout_unit = "%"
reported_value = -4.76

[[record]]
compound = "CCOc1ccccc1N1CCN(C(=O)c2ccc3[nH]c(C)c(C)c3c2)CC1"
observation_type = "max response"
readout_unit = "%"
reported_value = -2.02

[[record]]
compound = "Cc1cc(OCC(=O)NCC(O)c2ccccc2)c2c(C)c(C)c(=O)oc2c1 (stereo not given)"
observation_type = "max response"
readout_unit = "%"
reported_value = 8.74

[[record]]
compound = "Cc1cccc([C@H]2[C@@H]3C=CC[C@@H](C)[C@@H]3C(=O)N2Cc2ccccc2)c1"
observation_type = "max response"
readout_unit = "%"
reported_value = -6.21

[[record]]
compound = "O=C(CCc1ccccc1F)N1CCN(c2ccccc2)CC1"
observation_type = "max response"
readout_unit = "%"
reported_value = 0.391

[[record]]
compound = "CCOC(=O)Cc1csc(NC(NC(=O)OCC)(C(F)(F)F)C(F)(F)F)n1"
observation_type = "max response"
readout_unit = "%"
reported_value = -0.89

[[record]]
compound = "O=C(Nc1nnc(SCc2ccccc2)s1)c1ccco1"
observation_type = "max response"
readout_unit = "%"
reported_value = 23.3

[[record]]
compound = "CN1CCN(CC(=O)Nc2cccc([N+](=O)[O-])c2)CC1"
observation_type = "max response"
readout_unit = "%"
reported_value = 1.18

[[record]]
compound = "COCC(C)NC(=O)c1ccc(Cl)c(Cl)c1 (stereo not given)"
observation_type = "max response"
readout_unit = "%"
reported_value = 0.894

[[record]]
compound = "CCOC(=O)C1(CCOc2ccccc2)CCN(Cc2cc(OC)cc(OC)c2)CC1"
observation_type = "max response"
readout_unit = "%"
reported_value = -1.48

[[record]]
compound = "Cc1nnc(SCc2nc3ccccc3nc2C)s1"
observation_type = "max response"
readout_unit = "%"
reported_value = -3.4

[[record]]
compound = "CN(C)CCN=c1cc(-c2ccccc2)oc2ccc(Cl)cc12"
observation_type = "max response"
readout_unit = "%"
reported_value = 23.6

[[record]]
compound = "O=C(COC(=O)/C=C/c1nc2ccccc2s1)Nc1ccccc1Oc1ccccc1"
observation_type = "max response"
readout_unit = "%"
reported_value = -1.69

[[record]]
compound = "O=C(O)Cn1c(Cc2ccccc2)nc2ccccc21"
observation_type = "max response"
readout_unit = "%"
reported_value = 1.69

[[record]]
compound = "COc1ccccc1NC(=O)/C=C/C(N)=O"
observation_type = "max response"
readout_unit = "%"
reported_value = 9.83

[[record]]
compound = "Cc1ccccc1OCC(=O)NNC(=O)c1cc(S(=O)(=O)N(C)C)ccc1N1CCCC1"
observation_type = "max response"
readout_unit = "%"
reported_value = -2.55

[[record]]
compound = "O=C(NCC(=O)N1CCN(c2ccccc2O)CC1)c1ccc2ccccc2c1"
observation_type = "max response"
readout_unit = "%"
reported_value = 1.36

[[record]]
compound = "CC(C)(C)c1ccc(/C=C/C(=O)NCCCn2ccnc2)cc1"
observation_type = "max response"
readout_unit = "%"
reported_value = -3.02

[[record]]
compound = "Cc1nc(-c2ccc([N+](=O)[O-])cc2)c(-c2ccccc2)o1"
observation_type = "max response"
readout_unit = "%"
reported_value = -2.35

[[record]]
compound = "Nc1scc(-c2ccncc2)c1Cl"
observation_type = "max response"
readout_unit = "%"
reported_value = 26

[[record]]
compound = "O=C(CCSc1ccccc1)N1CCN(c2ccccc2F)CC1"
observation_type = "max response"
readout_unit = "%"
reported_value = 48.8

[[record]]
compound = "O=C(Nc1ccc(OCC(=O)N2CCOCC2)cc1)c1cc(F)c(F)cc1Cl"
observation_type = "max response"
readout_unit = "%"
reported_value = 2.51

[[record]]
compound = "CCc1ccc(NC(=O)CS(=O)CC(=O)N2CCN(c3ccccc3F)CC2)cc1 (stereo not given)"
observation_type = "max response"
readout_unit = "%"
reported_value = 3.43

[[record]]
compound = "O=C(CCS(=O)(=O)c1cccc2nsnc12)N1CCN(c2ccccc2F)CC1"
observation_type = "max response"
readout_unit = "%"
reported_value = 6.58

[[record]]
compound = "O=C(Nc1nnc(CCOCCOCCc2nnc(NC(=O)c3ccco3)s2)s1)c1ccco1"
observation_type = "max response"
readout_unit = "%"
reported_value = -1.29

[[record]]
compound = "Cc1cccc(CSc2nnc(NC(=O)CSc3nnc(C)s3)s2)c1"
observation_type = "max response"
readout_unit = "%"
reported_value = 10.9

[[record]]
compound = "CC(=O)NC(Cc1ccc(F)c(F)c1)C(=O)NC1CCN(c2nnnn2-c2ccccc2)CC1 (stereo not given)"
observation_type = "max response"
readout_unit = "%"
reported_value = -1.76

[[record]]
compound = "Cc1ccc(C)c(NC(=O)c2ccc3nccnc3c2)c1"
observation_type = "max response"
readout_unit = "%"
reported_value = 5.91

[[record]]
compound = "COc1ccc(OC)c(CNC(=O)c2cc(=O)[nH]c3ccc(S(=O)(=O)N4CCCC4)cc23)c1"
observation_type = "max response"
readout_unit = "%"
reported_value = 11.5

[[record]]
compound = "CCc1ccc(OCC(O)CN2CCN(CCO)CC2)cc1 (stereo not given)"
observation_type = "max response"
readout_unit = "%"
reported_value = -1.22

[[record]]
compound = "CCOC(=O)Cc1csc(NC(=O)C(C)(C)C)n1"
observation_type = "max response"
readout_unit = "%"
reported_value = 26.6

[[record]]
compound = "O=C(/C=C/c1ccc([N+](=O)[O-])cc1)NCCSCc1ccco1"
observation_type = "max response"
readout_unit = "%"
reported_value = 9.78

[[record]]
compound = "Cc1cc(CO)nn1-c1ccc([N+](=O)[O-])cc1"
observation_type = "max response"
readout_unit = "%"
reported_value = -1.2

[[record]]
compound = "CC(C)CCC(C)NC(=O)c1ccc2nccnc2c1 (stereo not given)"
observation_type = "max response"
readout_unit = "%"
reported_value = 53.8

[[record]]
compound = "C=CCn1c(=O)c(C(=O)NCc2ccc3c(c2)OCO3)c(O)c2ccccc21"
observation_type = "max response"
readout_unit = "%"
reported_value = -4.21

[[record]]
compound = "CCN1CCc2nc(NC(=O)c3cc(F)c(F)cc3Cl)sc2C1"
observation_type = "max response"
readout_unit = "%"
reported_value = 18.8

[[record]]
compound = "COc1ccc(C(=O)OCC(=O)Nc2cccc(C(C)=O)c2)cc1OC"
observation_type = "max response"
readout_unit = "%"
reported_value = 9.48

[[record]]
compound = "O=C(Nc1cccc(Cl)c1N1CCOCC1)c1cccnc1"
observation_type = "max response"
readout_unit = "%"
reported_value = 6.59

[[record]]
compound = "CCN(CC)S(=O)(=O)c1ccc(N2CC(C(=O)NCc3cccnc3)CC2=O)cc1 (stereo not given)"
observation_type = "max response"
readout_unit = "%"
reported_value = -8.09

[[record]]
compound = "CSCCC(NC(=O)c1ccc(Cl)cc1Cl)C(=O)NNC(=O)c1csc(N2CCOCC2)n1 (stereo not given)"
observation_type = "max response"
readout_unit = "%"
reported_value = 0.959

[[record]]
compound = "CCOC(=O)C1=C(CCc2ccccc2)NC(=O)NC1c1ccc2ccccc2c1 (stereo not given)"
observation_type = "max response"
readout_unit = "%"
reported_value = -1.16

[[record]]
compound = "Cc1ccc(Nc2nnc(SCc3ccccc3)s2)cc1"
observation_type = "max response"
readout_unit = "%"
reported_value = 24.5

[[record]]
compound = "CCOC(=O)C1(CCOC)CCN(Cc2ccc(C(=O)OC)cc2)CC1"
observation_type = "max response"
readout_unit = "%"
reported_value = 19.1

[[record]]
compound = "Cc1ccc(C)c(S(=O)(=O)N2CCN(CC(=O)Nc3ccc([N+](=O)[O-])cc3)CC2)c1"
observation_type = "max response"
readout_unit = "%"
reported_value = -0.724

